System: SK-MEL-5 melanoma
Method Description: NCI tumour cell line growth inhibition, 48 h; in the data active = GI50 below about 0.43 µM; inactive = the rest
*1 amine or outer side, *2 acyl side, *3 side chain or, on linkers, in order; H or OH if unused. Where a SMILES comes first, the peptide text is derived from it. Bridges are numbered along the chain shown (N, C = ends). [ ]: non-standard residue; d: D form. The star is where a group is joined. Phe(3-Me) = Cc1cccc(C[C@H](N)C(=O)O)c1; NH(4-Cl-2-F-phenyl) = Fc1cc(Cl)ccc1N*; Pro(4R-Me) = C[C@H]1CN[C@H](C(=O)O)C1; Propanoyl(3-NMe2) = CN(C)CCC(=O)*; Hyp = O=C(O)[C@@H]1C[C@@H](O)CN1; aThr = C[C@H](O)[C@H](N)C(=O)O; Pip = O=C(O)[C@@H]1CCCCN1; CO = O=C([*:1])[*:2]
Your reply should match one of these outcome classes. yes (active), no (inactive)

Completed entries (count: 6):
- Compound: "Oc1cc2ccccc2cc1-c1n[nH]c(=S)n1-c1ccc(Cl)cc1"
  Assigned Label: "no"
- Compound: "Cc1cccc(C[C@H](NC(=O)Nc2ccc(Cl)cc2F)C(=O)N[C@@H]2C(=O)N3C[C@H](OC(=O)CCN(C)C)C[C@H]3C(=O)N3CCCC[C@H]3C(=O)N[C@@H](C)C(=O)N3C[C@H](C)C[C@H]3C(=O)O[C@H]2C)c1 ({NH(4-Cl-2-F-phenyl)-CO}-[Phe(3-Me)][aThr][Hyp](Propanoyl(3-NMe2))[Pip]A[Pro(4R-Me)]; ester 2-C)"
  Assigned Label: "no"
- Compound: "CCCN1CCN(c2ccc3nc(-c4ccc5nc(-c6ccc(OCC)c(OCC)c6)[nH]c5c4)[nH]c3c2)CC1"
  Assigned Label: "yes"
- Compound: "Nc1nc2c(c3cnccc13)C(c1cccc(Cl)c1)Cc1cnccc1-2 (configuration not stated)"
  Assigned Label: "yes"
- Compound: "COc1cc([C@@H]2c3cc4c(c(O)c3C[C@H]3COC(=O)[C@@H]32)OCO4)cc(OC)c1O"
  Assigned Label: "yes"
- Compound: "CC(C)Oc1ccc(C(=O)N[C@H](CNC(=O)CN(C)C)Cc2ccc(-c3cn4cccc([C@H](C)O)c4n3)cc2)cc1Cl"
  Assigned Label: "yes"

[in] Recorded test outcome, item NC(N)=Nc1nc2ccccc2[nH]1
[out] no
